Target: JAK2 (Homo sapiens (Human), UniProt O60674)
Sequence (O60674 whole entry): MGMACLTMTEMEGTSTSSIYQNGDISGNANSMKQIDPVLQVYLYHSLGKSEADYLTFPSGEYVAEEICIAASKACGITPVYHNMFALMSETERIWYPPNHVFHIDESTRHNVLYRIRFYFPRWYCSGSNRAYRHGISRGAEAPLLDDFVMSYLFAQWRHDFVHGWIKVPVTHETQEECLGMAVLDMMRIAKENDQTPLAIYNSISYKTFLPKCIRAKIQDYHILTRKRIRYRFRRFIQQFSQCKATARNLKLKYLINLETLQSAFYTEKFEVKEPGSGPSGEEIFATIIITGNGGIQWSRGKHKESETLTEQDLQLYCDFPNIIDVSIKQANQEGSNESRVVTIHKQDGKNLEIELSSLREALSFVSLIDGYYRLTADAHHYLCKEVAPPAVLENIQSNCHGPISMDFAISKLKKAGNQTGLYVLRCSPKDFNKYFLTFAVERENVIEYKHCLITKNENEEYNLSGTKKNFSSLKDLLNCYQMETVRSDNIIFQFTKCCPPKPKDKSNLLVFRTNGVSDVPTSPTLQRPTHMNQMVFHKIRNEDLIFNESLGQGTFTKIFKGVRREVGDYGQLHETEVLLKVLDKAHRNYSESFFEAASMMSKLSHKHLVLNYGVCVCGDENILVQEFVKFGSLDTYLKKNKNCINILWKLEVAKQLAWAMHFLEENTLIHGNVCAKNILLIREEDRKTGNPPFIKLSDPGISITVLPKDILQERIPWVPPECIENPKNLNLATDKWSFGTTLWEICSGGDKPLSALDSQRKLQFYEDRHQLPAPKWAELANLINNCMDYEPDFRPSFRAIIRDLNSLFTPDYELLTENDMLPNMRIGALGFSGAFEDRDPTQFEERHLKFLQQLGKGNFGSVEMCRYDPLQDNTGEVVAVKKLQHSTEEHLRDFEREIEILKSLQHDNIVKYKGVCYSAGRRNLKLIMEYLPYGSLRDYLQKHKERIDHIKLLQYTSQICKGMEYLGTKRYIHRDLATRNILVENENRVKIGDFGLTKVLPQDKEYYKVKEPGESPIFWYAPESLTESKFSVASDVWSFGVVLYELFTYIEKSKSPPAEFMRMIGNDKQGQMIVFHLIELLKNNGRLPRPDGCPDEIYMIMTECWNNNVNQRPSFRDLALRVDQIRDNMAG
Experiment: JAK2 enzyme assay (Z'-LYTE)
Format: biochemical
Conditions: 25 μM ATP; mean of at least 2 experiments; read-out: JAK2 enz pIC50 (converted)
Consider the following molecules and their measured IC50 readings.

Solved cases (10 shown):
• Cc1nc2cc(C)c(Nc3ncc4c(n3)n(C3CCOCC3)c(=O)n4C)cn2n1 [Example 4] = > 10 µM
• Cc1cc2ncnn2cc1Nc1ncc2c(n1)n([C@H]1CC[C@@H](O)CC1)c(=O)n2C [Example 2] = > 10 µM
• Cc1cc2ncnn2cc1Nc1ncc2c(n1)n([C@@H]1CCCOC1)c(=O)n2C [Example 8] = > 10 µM
• Cc1cc2ncnn2cc1Nc1ncc2c(n1)n(C1CCCCC1)c(=O)n2C [Example 13] = > 10 µM
• Cc1cc2ncnn2cc1Nc1ncc2c(n1)n([C@H]1CC[C@@](C)(O)CC1)c(=O)n2C [Example 10] = > 10 µM
• Cc1cc2ncnn2cc1Nc1ncc2c(n1)n([C@H]1CCOC1)c(=O)n2C [Example 11] = > 10 µM
• Cc1cc2ncnn2cc1Nc1ncc2c(n1)n(C1CCOCC1)c(=O)n2C [Example 3] = > 10 µM
• Cc1cc2ncnn2cc1Nc1ncc2c(n1)n([C@H]1CCCOC1)c(=O)n2C [Example 7] = > 10 µM
• Cc1cc2ncnn2cc1Nc1ncc2c(n1)n([C@H]1CC[C@](C)(O)CC1)c(=O)n2C [Example 9] = > 10 µM
• CO[C@H]1CC[C@@H](n2c(=O)n(C)c3cnc(Nc4cn5ncnc5cc4C)nc32)CC1 [Example 5] = > 10 µM

Recorded result, CO[C@H]1CC[C@H](n2c(=O)n(C)c3cnc(Nc4cn5ncnc5cc4C)nc32)CC1 [Example 6] , IC50: > 10 µM

Record summary for Cc1cc2ncnn2cc1Nc1ncc2c(n1)n([C@H]1CC[C@H](O)CC1)c(=O)n2C [Example 1] : reported IC50 = > 10 µM

// IC50 lookup, molecule = Cc1cc2ncnn2cc1Nc1ncc2c(n1)n([C@]1(C)CC[C@H](O)CC1)c(=O)n2C [Example 12] , result: > 10 µM
